The measurements presented in this section are drawn from patent US11214803B2.

- Tested on: Yap1 mRNA
- Run Description: Dose-dependent inhibition of human Yap1 in A-431 cells (Example 8, 10,000 cells per well, RTS4814)
- Assay type: cell-based
- Run Parameters: 125.0 nM; A-431 cells, 10,000 cells per well, free uptake, approximately 48 hours, RTS4814
Strand notation (5' to 3'): a small letter for the sugar, then the base; units joined by * are phosphorothioate-linked, units joined directly phosphodiester-linked; [ ] holds rarer units or linkages, { } end groups; capitals alone tell only the bases. k = constrained ethyl (cEt); [5mC] = 5-methylcytosine; d = 2'-deoxy (DNA)

{"columns": ["Substance", "System Name", "Yap1 mRNA, % UTC, % UTC"],
 "data": [
  ["1075784 (kA*kT*kT*dT*dT*dA*dT*dA*dG*dG*dG*d[5mC]*d[5mC]*kA*kT*kT; antisense) [compound 1075784]", "Yap1 mRNA", 18],
  ["1076399 (antisense kG*kA*kT*dA*dA*d[5mC]*dT*dT*dA*dG*dA*dG*dA*kT*kG*kT) [compound 1076399]", "Yap1 mRNA", 29],
  ["1074766 (kA*kT*k[5mC]*d[5mC]*d[5mC]*dA*dA*dT*dG*d[5mC]*dT*dA*d[5mC]*k[5mC]*k[5mC]*kA; antisense) [compound 1074766]", "Yap1 mRNA", 32],
  ["1076483 (kA*k[5mC]*kG*dG*dG*dA*dA*dA*dT*d[5mC]*dA*dT*dA*kT*kA*kG; antisense) [compound 1076483]", "Yap1 mRNA", 27],
  ["1076115 (k[5mC]*kA*kT*dT*dA*dG*dT*dA*dA*dG*d[5mC]*dT*dG*kA*kG*kG; antisense) [compound 1076115]", "Yap1 mRNA", 17],
  ["1076556 (kG*kT*kA*dT*dA*dG*dG*d[5mC]*dA*dG*dA*dA*dG*k[5mC]*kA*kA; antisense) [compound 1076556]", "Yap1 mRNA", 46],
  ["1076525 (kG*kA*kA*dT*dT*dT*dA*dT*dA*dT*d[5mC]*dA*dG*kG*kT*k[5mC]; antisense) [compound 1076525]", "Yap1 mRNA", 14],
  ["1074758 (k[5mC]*kA*kG*dT*dT*dA*dA*dG*d[5mC]*dA*d[5mC]*dT*dT*kT*kT*kA; antisense) [compound 1074758]", "Yap1 mRNA", 23],
  ["1074755 (k[5mC]*kA*k[5mC]*dT*dT*dT*dT*dA*d[5mC]*dA*dT*dT*dA*kG*kG*kA; antisense) [compound 1074755]", "Yap1 mRNA", 9],
  ["1074450 (kA*k[5mC]*kT*dA*dA*dT*dG*dA*dT*dA*dG*d[5mC]*dA*k[5mC]*kT*kA; antisense) [compound 1074450]", "Yap1 mRNA", 22],
  ["1076516 (k[5mC]*kA*kT*dA*dA*dA*d[5mC]*dA*dT*dG*dA*dG*dT*kG*kG*kT; antisense) [compound 1076516]", "Yap1 mRNA", 39],
  ["1075808 (kG*k[5mC]*kA*dA*dT*dA*dG*dA*dG*dT*dA*dA*d[5mC]*k[5mC]*kA*kG; antisense) [compound 1075808]", "Yap1 mRNA", 9],
  ["1074451 (kG*kA*k[5mC]*dT*dA*dA*dT*dG*dA*dT*dA*dG*d[5mC]*kA*k[5mC]*kT; antisense) [compound 1074451]", "Yap1 mRNA", 26],
  ["1074536 (kA*kG*kT*dA*dA*dT*dA*dG*d[5mC]*dT*d[5mC]*dT*dT*kT*k[5mC]*kT; antisense) [compound 1074536]", "Yap1 mRNA", 24],
  ["1076430 (k[5mC]*kG*kT*dT*dA*dT*dA*dA*dG*dA*dT*dG*dT*kG*k[5mC]*kT; antisense) [compound 1076430]", "Yap1 mRNA", 14],
  ["1074728 (antisense kT*kG*kA*dG*dG*dT*dA*dT*dA*dA*d[5mC]*dT*dG*kG*kG*k[5mC]) [compound 1074728]", "Yap1 mRNA", 7],
  ["1076367 (antisense k[5mC]*kT*kA*dT*dT*dT*dA*d[5mC]*dA*dT*dG*dA*dG*kA*kG*kG) [compound 1076367]", "Yap1 mRNA", 10],
  ["1076049 (kA*kG*kA*dT*dT*dA*dA*dA*dG*dG*d[5mC]*dT*dG*kG*kA*kA; antisense) [compound 1076049]", "Yap1 mRNA", 16],
  ["1075813 (kA*k[5mC]*kT*dA*dA*dT*dA*dT*dG*d[5mC]*dA*dA*d[5mC]*kT*k[5mC]*kT; antisense) [compound 1075813]", "Yap1 mRNA", 31],
  ["1075498 (k[5mC]*kA*kT*dT*dA*dT*dA*dT*dA*dA*dT*dG*d[5mC]*kA*kG*kG; antisense) [compound 1075498]", "Yap1 mRNA", 40],
  ["1075781 (k[5mC]*kA*kT*dA*dT*dA*dT*dT*dG*dT*dG*dA*d[5mC]*kT*kT*k[5mC]; antisense) [compound 1075781]", "Yap1 mRNA", 15],
  ["1075146 (kG*kT*kA*dT*dT*dA*dA*dG*dG*dG*dA*dT*dT*kT*kT*k[5mC]; antisense) [compound 1075146]", "Yap1 mRNA", 38],
  ["1076416 (kA*k[5mC]*k[5mC]*dG*dA*dA*dA*dT*dG*dA*dT*dA*d[5mC]*kT*kG*kA; antisense) [compound 1076416]", "Yap1 mRNA", 33],
  ["1076070 (kA*kT*kT*dA*dG*dT*dA*dA*dT*dG*d[5mC]*dA*d[5mC]*kA*kG*kG; antisense) [compound 1076070]", "Yap1 mRNA", 17],
  ["1074609 (DNA k[5mC]*kT*kA*dG*dT*dT*dA*d[5mC]*dA*dT*d[5mC]*dA*dT*k[5mC]*kT*k[5mC]) [compound 1074609]", "Yap1 mRNA", 29]
]}

* * *

- Tested on: Yap1 mRNA
- Run Description: Dose-dependent inhibition of human Yap1 in SNU-449 cells (Example 9, RTS36584)
- Assay type: cell-based
- Run Parameters: 2000.00 nM, free uptake, approximately 48 hours
Strand notation (5' to 3'): a small letter for the sugar, then the base; units joined by * are phosphorothioate-linked, units joined directly phosphodiester-linked; [ ] holds rarer units or linkages, { } end groups; capitals alone tell only the bases. e = 2'-O-(2-methoxyethyl) (MOE); k = constrained ethyl (cEt); [5mC] = 5-methylcytosine; d = 2'-deoxy (DNA)
Measured % UTC (Yap1 mRNA), listed per entry for reference.
Measured Attribute: % UTC (Yap1 mRNA) (% UTC)

{"columns": ["Substance", "System Name", "Measured Result"],
 "data": [
  ["1009325 (kA*kG*kA*dG*dT*dA*dT*dG*dT*dG*dG*d[5mC]*dA*kA*kT*kA; antisense) [compound 1009325]", "Yap1 mRNA", 4],
  ["1198409 (kA*dG*dT*dG*d[5mC]*dT*dT*dT*dG*dG*dA*kA*eG*kA*eT*k[5mC]; antisense) [compound 1198409]", "Yap1 mRNA", 27],
  ["1200789 (G_{ks}G_{ks}A_{ks}A_{ds}A_{ds}U_{ys}T_{ds}G_{ds}T_{ds}^{m}C_{ds}T_{ds}^{m}C_{ds}A_{ds}T_{ks}G_{ks}^{m}C_{k}; as printed in the source, key not given here) [compound 1200789]", "Yap1 mRNA", 5],
  ["1197193 (AGGATGCATGGTTTTT; chemistry not fully specified) [compound 1197193]", "Yap1 mRNA", 11],
  ["1097247 (kT*kA*kA*dA*dG*dT*dG*dT*dA*dT*dG*dT*d[5mC]*kA*kG*kA; antisense) [compound 1097247]", "Yap1 mRNA", 2],
  ["1074462 (kG*kG*kA*dA*dA*dT*dT*dG*dT*d[5mC]*dT*d[5mC]*dA*kT*kG*k[5mC]; antisense) [compound 1074462]", "Yap1 mRNA", 3]
]}

* * *

Below: a set of entries, each annotated with reported YAP1 (% UT).
- Test system: Yap1 mRNA
- Run Description: Antisense inhibition of human Yap1 in SNU-449 cells by modified oligonucleotides, single dose (Example 5, RTS36584)
- Type: cell-based
- Run Parameters: Table 50; Yap1 mRNA remaining as percent of untreated control (UT), SNU-449 cells, single dose
Strand notation (5' to 3'): a small letter for the sugar, then the base; units joined by * are phosphorothioate-linked, units joined directly phosphodiester-linked; [ ] holds rarer units or linkages, { } end groups; capitals alone tell only the bases. e = 2'-O-(2-methoxyethyl) (MOE); k = constrained ethyl (cEt); [5mC] = 5-methylcytosine; d = 2'-deoxy (DNA); m = 2'-O-methyl
Measured Attribute: YAP1 (% UT)

{"columns": ["Substance", "Measured Result"],
 "data": [
  ["1095454 (antisense k[5mC]*kT*kG*dA*dG*dG*dT*dA*dT*dA*dA*d[5mC]*kT*kG*kG*eG) [Compound 1095454]", 47],
  ["1197230 (antisense kT*kG*kG*dA*mA*dA*dT*dT*dG*dT*d[5mC]*dT*d[5mC]*kA*kT*kG) [Compound 1197230]", 29],
  ["715487 (antisense kA*kT*kT*dA*d[5mC]*dT*dT*d[5mC]*dA*dT*dA*dG*d[5mC]*kT*kT*kA) [Compound 715487]", 31],
  ["1198617 (antisense k[5mC]*kT*kT*dT*dA*dA*dA*dG*dT*dG*dT*dA*kT*kG*kT*e[5mC]) [Compound 1198617]", 34],
  ["1198627 (kT*kT*kA*dG*dA*d[5mC]*dT*dA*dA*dG*dT*dA*kA*kG*kG*eT; antisense) [Compound 1198627]", 39],
  ["1197282 (kA*kA*kA*dT*mU*dG*dT*d[5mC]*dT*d[5mC]*dA*dT*dG*k[5mC]*k[5mC]*kT) [Compound 1197282]", 40]
]}
